experiment: Mouse pharmacokinetic study; assay type: in vivo, Swiss albino mice; settings: male, Swiss albino, mouse, plasma, po, 3 mg/kg, Cmax, mice, PO 3 mg/kg
Value Kind: Cmax (ng/mL)

Chemical Smiles	Value Kind	Measurement Unit	Endpoint Result
C1CCc2c(c(N3CCOCC3)nc3sc4c(N5CCNCC5)nnnc4c23)C1	Cmax	ng/mL	15.2

###

test: Mouse pharmacokinetic study; type: in vivo, Swiss albino mice; conditions: male, Swiss albino, mouse, plasma, po, 3 mg/kg, AUClast, mice, PO 3 mg/kg

Chemical Smiles	AUC(0-t)
C1CCc2c(c(N3CCOCC3)nc3sc4c(N5CCNCC5)nnnc4c23)C1	~20 ng·h/mL
